Property: inhibition at 10 µM; scope: individual molecules
Target: CYP3A4 (Homo sapiens)
Sequence (P08684 whole entry): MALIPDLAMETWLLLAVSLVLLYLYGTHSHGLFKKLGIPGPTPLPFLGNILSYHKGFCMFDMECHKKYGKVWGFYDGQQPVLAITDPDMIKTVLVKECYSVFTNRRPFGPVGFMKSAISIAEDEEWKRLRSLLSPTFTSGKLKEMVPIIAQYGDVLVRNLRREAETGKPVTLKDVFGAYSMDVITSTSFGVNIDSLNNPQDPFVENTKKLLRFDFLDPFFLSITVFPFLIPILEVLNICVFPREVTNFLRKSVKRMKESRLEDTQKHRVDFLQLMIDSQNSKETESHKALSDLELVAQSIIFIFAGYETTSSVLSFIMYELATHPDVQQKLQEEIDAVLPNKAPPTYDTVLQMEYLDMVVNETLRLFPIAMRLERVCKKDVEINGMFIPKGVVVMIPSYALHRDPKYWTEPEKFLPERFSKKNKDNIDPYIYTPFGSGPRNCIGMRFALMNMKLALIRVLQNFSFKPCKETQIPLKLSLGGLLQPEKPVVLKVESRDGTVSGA
Experiment: Inhibition of human CYP3A4 at 10 uM preincubated for 10 mins with cofactor followed by mixture of enzyme-substrate addition by fluorescence assay relative to control
Format: ADME
Please state the figure in %; there is no need to write the unit.

>>> observed("COc1ccc2ccc(=O)oc2c1CC=C(C)C")
27.3

Here is the next item to consider.
Look at this molecule and give its reported inhibition at 10 µM. CC(=O)N1CCN(c2ccc(OCC3COC(Cn4ccnc4)(c4ccc(Cl)cc4Cl)O3)cc2)CC1 (configuration not stated)
95.2

###

Tested on: Staphylococcus aureus
Test: Inhibition of MsrA overexpressed in Staphylococcus aureus K2191 assessed as erythromycin MIC at 25 uM after 24 hrs by broth checkerboard method (reference value: 64 ug/ml)
Reported metric: MIC
Could you write the number and then its unit?

Some solved entries appear below for comparison.
>>> observed("CC(C)=CCOc1c2occc2cc2ccc(=O)oc12")
"64 µg/mL"
>>> observed("COc1c2ccoc2c(OCC=C(C)C)c2oc(=O)ccc12")
"32 µg/mL"
>>> observed("COc1ccc2ccc(=O)oc2c1CC=C(C)C")
"64 µg/mL"
>>> observed("COc1c(C(=O)/C=C(\\O)c2ccccc2)ccc2occc12")
"64 µg/mL"

Now for another entry.
Returns the measured MIC for the input molecule. Input: CC(=O)Oc1cc(OC(C)=O)c2ccc(=O)oc2c1CC=C(C)C
16 µg/mL

###

Catalogue of compounds with associated fold change (FC)
System: Staphylococcus aureus
Experiment: Inhibition of TetK overexpressed in Staphylococcus aureus K2192 assessed as decrease in tetracycline MIC at 25 uM after 24 hrs by broth checkerboard method relative to control
// return a plain number; no unit text

>>> observed("CC(=O)Oc1cc(OC(C)=O)c2ccc(=O)oc2c1CC=C(C)C")
2
>>> observed("O=C(/C=C/C=C/c1ccc2c(c1)OCO2)N1CCCCC1")
0
>>> observed("COc1ccc2ccc(=O)oc2c1CC=C(C)C [OSTHOLE]")
2
>>> observed("CC(C)=CCc1c(O)cc(O)c2ccc(=O)oc12")
0
>>> observed("C=CC(C)(C)c1cc2cc3c(cc2oc1=O)OC(C)(C)C=C3")
2

For COc1cc(/C=C/C(=O)CC(=O)/C=C/c2ccc(O)c(OC)c2)ccc1O [CURCUMIN] , what is its reported fold change (FC)?
0

What does the data say about its fold change (FC)? Entry: CC(C)=CCOc1c2occc2cc2ccc(=O)oc12 [PENTOSALEN]
0

If you can, please state the reported fold change (FC) value of C/C=C(\C)C(=O)OC1c2c(ccc3ccc(=O)oc23)OC(C)(C)C1OC(=O)/C(C)=C/C (stereo not given) .
0

Would you mind telling me what fold change (FC) value was observed for COc1c(C(=O)/C=C(\O)c2ccccc2)ccc2occc12 [PONGAMOL] ?
0

Item COc1c2ccoc2c(OCC=C(C)C)c2oc(=O)ccc12 [PHELLOPTERIN] has what recorded fold change (FC)?
0

###

Test system: Staphylococcus aureus
Experiment: Inhibition of MsrA overexpressed in Staphylococcus aureus K2191 assessed as decrease in erythromycin MIC at 25 uM after 24 hrs by broth checkerboard method relative to control
Reported metric: fold change (FC)
Quick one: just the number, no unit, thanks!

Worked set:
>>> observed("CC(C)=CCOc1c2occc2cc2ccc(=O)oc12")
0
>>> observed("COc1c(C(=O)/C=C(\\O)c2ccccc2)ccc2occc12")
0
>>> observed("O=C(/C=C/C=C/c1ccc2c(c1)OCO2)N1CCCCC1")
0
>>> observed("CC(C)=CCc1c(O)cc(O)c2ccc(=O)oc12")
0
>>> observed("CC(=O)Oc1cc(OC(C)=O)c2ccc(=O)oc2c1CC=C(C)C")
4
>>> observed("C/C=C(\\C)C(=O)OC1c2c(ccc3ccc(=O)oc23)OC(C)(C)C1OC(=O)/C(C)=C/C (stereo not given)")
0

What value of measured fold change (FC) is listed for COc1ccc2ccc(=O)oc2c1CC=C(C)C ?
0

Requested read-out: fold change (FC). Entry: COc1cc(/C=C/C(=O)CC(=O)/C=C/c2ccc(O)c(OC)c2)ccc1O
0

// fold change (FC) lookup, key: C=CC(C)(C)c1cc2cc3c(cc2oc1=O)OC(C)(C)C=C3
0

Which fold change (FC) value is on record for COc1c2ccoc2c(OCC=C(C)C)c2oc(=O)ccc12 ?
2
